Dopamine Release relative to Nicotine for assorted compounds
tested on: nAChR evoked release of [3H]-dopamine, rat striatal slices; assay: Striatal dopamine release assay (nAChR evoked release of [3H]-dopamine from superfused rat striatal slices); format: cell-based, rat (male Sprague-Dawley); settings: Table 1; example concentration * = 10 μM; relative to 100 nM (-)-nicotine
Counter-ions that a name gives are not always drawn.

Examples with their reported Dopamine Release relative to Nicotine follow.
Cc1ccc(OC[C@@H]2CCN2C)cn1.Cl.Cl | 0.7
Cc1ccncc1OC[C@@H]1CCCN1C.Cl.Cl | 0.85
CN1CCC[C@H]1COc1cccnc1.O=C(O)/C=C/C(=O)O | 1.0
CN1CCC[C@H]1COc1cnc2ccccc2c1.Cl | 0.15
Clc1ccc(OC[C@@H]2CCN2)cn1 [Example 52, dihydrochloride] | 1.0
CN1CC[C@H]1COc1cccnc1.Cl.Cl | 1.0
CN1CCC[C@@H]1COc1cccnc1.Cl | 0.08
Cl.Cl.c1cncc(OC[C@@H]2CCN2)c1 | 1.0

Report Dopamine Release relative to Nicotine for `Cc1ccc(OC[C@H]2CCCN2)cn1.Cl.Cl`
0.8

Indicate its recorded Dopamine Release relative to Nicotine; the compound in question is `CCN1CCC[C@H]1COc1cccnc1.Cl.Cl`
0.6
